Task for the reader: assign each of the following compounds its reported GI50.
test system: T-47D breast; test: NCI tumour cell line growth inhibition, 48 h

Consider the worked cases shown below.
C=C1C(=O)O[C@@H]2C1CC(=O)C(C)CC/C=C(\C)CCC[C@H](C)[C@H]2OC(C)=O (stereo partly specified); 20.4 µM
N#Cc1ncc(/N=C/c2ccc(N(CCCl)CCCl)cc2)s1; 6.71 µM

State the recorded GI50 for every item in the following list.
1. CC1=C(C(=O)OCc2ccccc2)C(c2ccc3c(c2)OCO3)n2c(nc3ccccc32)N1 (stereo unspecified)
2. N#CC(C#N)=Cc1ccc(-c2ccc(-c3nc4ccccc4s3)cc2)o1
3. Nc1nc(/C=C\c2ccc([N+](=O)[O-])o2)nc(N2CCN(c3ccccc3)CC2)n1

["0.508 µM", "4.46 µM", "13.5 µM"]

# lookup: GI50 of COc1cc2cc(C(=O)N3CC(CCl)c4c3cc(NC(=O)C(C)(C)c3ccccc3[N+](=O)[O-])c3ccccc43)[nH]c2c(OC)c1OC (stereo unspecified)
61.5 µM
